STUDY_TARGET: UniProtKB Q9P2K8
Sequence (Q9P2K8 whole entry): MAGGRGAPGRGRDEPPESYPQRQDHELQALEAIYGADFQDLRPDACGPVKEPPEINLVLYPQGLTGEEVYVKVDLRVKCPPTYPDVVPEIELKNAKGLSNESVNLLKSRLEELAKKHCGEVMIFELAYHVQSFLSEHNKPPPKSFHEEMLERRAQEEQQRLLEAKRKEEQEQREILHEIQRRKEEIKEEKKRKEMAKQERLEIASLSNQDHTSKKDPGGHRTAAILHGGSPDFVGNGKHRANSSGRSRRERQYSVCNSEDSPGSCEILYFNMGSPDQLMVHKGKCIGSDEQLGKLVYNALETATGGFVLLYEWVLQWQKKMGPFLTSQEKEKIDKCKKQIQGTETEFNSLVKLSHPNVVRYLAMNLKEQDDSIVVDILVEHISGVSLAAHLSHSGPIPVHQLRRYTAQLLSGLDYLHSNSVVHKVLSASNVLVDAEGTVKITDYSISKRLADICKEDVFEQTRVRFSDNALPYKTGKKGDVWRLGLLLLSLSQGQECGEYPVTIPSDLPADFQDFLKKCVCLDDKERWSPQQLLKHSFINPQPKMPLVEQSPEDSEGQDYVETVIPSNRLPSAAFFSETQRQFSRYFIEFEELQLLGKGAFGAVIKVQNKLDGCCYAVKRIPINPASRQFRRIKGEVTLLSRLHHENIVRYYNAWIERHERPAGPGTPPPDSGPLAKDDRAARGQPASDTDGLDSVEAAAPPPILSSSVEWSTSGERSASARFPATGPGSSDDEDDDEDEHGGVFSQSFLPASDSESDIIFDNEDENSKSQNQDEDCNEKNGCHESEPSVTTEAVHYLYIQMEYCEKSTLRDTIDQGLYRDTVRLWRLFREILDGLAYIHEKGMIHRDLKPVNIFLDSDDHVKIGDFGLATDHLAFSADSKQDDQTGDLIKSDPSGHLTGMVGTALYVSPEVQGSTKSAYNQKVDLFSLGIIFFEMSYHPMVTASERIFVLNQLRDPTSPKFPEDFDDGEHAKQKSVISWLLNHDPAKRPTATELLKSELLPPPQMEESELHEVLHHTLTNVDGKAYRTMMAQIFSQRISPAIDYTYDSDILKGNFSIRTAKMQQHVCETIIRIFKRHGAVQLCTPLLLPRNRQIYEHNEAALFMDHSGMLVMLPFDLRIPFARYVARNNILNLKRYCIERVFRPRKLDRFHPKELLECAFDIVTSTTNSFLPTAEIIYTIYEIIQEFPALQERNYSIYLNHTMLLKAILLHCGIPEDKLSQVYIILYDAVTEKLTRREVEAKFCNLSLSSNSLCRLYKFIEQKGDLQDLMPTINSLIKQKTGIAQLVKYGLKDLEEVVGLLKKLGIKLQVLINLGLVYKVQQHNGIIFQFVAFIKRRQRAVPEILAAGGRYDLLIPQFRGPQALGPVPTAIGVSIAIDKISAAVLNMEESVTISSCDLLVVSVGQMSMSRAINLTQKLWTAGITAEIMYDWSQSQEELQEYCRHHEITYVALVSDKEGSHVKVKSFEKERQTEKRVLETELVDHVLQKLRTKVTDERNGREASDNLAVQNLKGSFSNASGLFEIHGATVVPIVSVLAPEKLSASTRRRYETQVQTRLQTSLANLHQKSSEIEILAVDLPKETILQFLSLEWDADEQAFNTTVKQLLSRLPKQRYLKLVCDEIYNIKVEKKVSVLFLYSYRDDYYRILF
TEST_NAME: TR-FRET biochemical assay for inhibition of GCN2 (Example 106, for Example 1-4BB)
MEASUREMENT_PARAMETERS: Table 8
Listed next: entries and their corresponding IC50.

{"MOLECULAR_STRING": "N#Cc1ccccc1S(=O)(=O)Nc1ccc(F)c(-c2ccc3c(-c4ncc[nH]4)n[nH]c3c2F)c1F", "IC50": "< 500 nM"}
{"MOLECULAR_STRING": "O=S(=O)(Nc1ccc(F)c(-c2ccc3c(-c4ncc[nH]4)n[nH]c3c2F)c1F)c1cc(Cl)ccc1CO", "IC50": "< 500 nM"}
{"MOLECULAR_STRING": "O=c1cccc(S(=O)(=O)Nc2ccc(F)c(-c3ccc4c(-c5ncc[nH]5)n[nH]c4c3F)c2F)[nH]1", "IC50": "2500 to 10000 nM"}
{"MOLECULAR_STRING": "Cc1ccc(S(=O)(=O)Nc2ccc(F)c(-c3ccc4c(-c5ncc[nH]5)n[nH]c4c3F)c2F)c(C)n1", "IC50": "< 500 nM"}
{"MOLECULAR_STRING": "COc1ncc(Cl)cc1S(=O)(=O)Nc1ccc(F)c(-c2ccc3c(C(=O)NCCO)n[nH]c3c2F)c1F", "IC50": "< 500 nM"}
{"MOLECULAR_STRING": "O=S(=O)(Nc1ccc(F)c(-c2ccc3c(-c4ncc[nH]4)n[nH]c3c2F)c1F)c1cccc(O)c1F", "IC50": "< 500 nM"}
{"MOLECULAR_STRING": "COc1ncc(Cl)cc1S(=O)(=O)Nc1ccc(F)c(-c2ccc3cn[nH]c3c2)c1F", "IC50": "500 to 2500 nM"}
